Value source: PubChem BioAssay

# Assay Details: survival rescue of mitochondrial mutant cells in low glucose, primary screen, MELAS cybrids, Rieske KO mouse fibroblasts, CellTiter-Glo (AID 1508586);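 note: test concentration not given here; z relative to plate mean and SD of compound and empty wells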
# Reported Conditions: Rieske KO mouse fibroblast survival, CellTiter-Glo 72 h
Readout Kind: z-score

# Compound, Readout Kind, Result Value
rows = [
    ("Cn1c(=O)c2c(ncn2CC(=O)O)n(C)c1=O", "z-score", 0.00475),
    ("COc1cc2c(Nc3ccc(NC(=O)c4ccccc4)cc3)ncnc2cc1OCCCN1CCOCC1", "z-score", 0.628),
    ("CCS(=O)(=O)Nc1ccc2[nH]c(O)c(C(=Nc3ccc(CN4CCCCC4)cc3)c3ccccc3)c2c1", "z-score", -2.81),
    ("O=c1c(O)c(-c2ccc(O)cc2O)oc2cc(O)cc(O)c12", "z-score", 0.729),
    ("O=C(OC1C[C@H]2CC[C@@H](C1)[N+]21CCCC1)C(O)(c1ccccc1)c1ccccc1 (stereo not given in full)", "z-score", 0.689),
]
